All figures here come from ChEMBL document CHEMBL5303711.

TEST_DETAILS: Cytotoxicity activity against human HepG2 cells assessed by CellTiter-Glo luminescent cell viability assay.
Assay type: toxicity, cell-based
Parameters: assay stage confirmatory assay, source tissue liver
MEASUREMENT_CONDITIONS: HepG2 cells, read-out: IC50 relative
Active and inactive are the calls of the source. The rule behind the calls is not given here.
API: response.call in active, inactive

> print(dat)
                                   compound  discrete.label
1  CCn1cc(-c2ccnc3[nH]c(-c4cccc(CN(C)C)c4)cc23)c(-c2ccc(NC(=O)N(C)C)cc2)n1          active
2  CCC(C)n1ncn(-c2ccc(N3CCN(c4ccc(OCC5COC(Cn6cncn6)(c6ccc(Cl)cc6Cl)O5)cc4)CC3)cc2)c1=O (stereo not drawn)          active
3  CCOc1cc(C(C)(C)C)ccc1C1=N[C@@](C)(c2ccc(Cl)cc2)[C@@](C)(c2ccc(Cl)cc2)N1C(=O)N1CCN(CCCS(C)(=O)=O)CC1          active
4  CC(C)CC(=O)Nc1[nH]nc2c1CN(C(=O)C1CCN(C)CC1)C2(C)C          active
5  Cc1cc(C)cc(NC(=O)CC2CCCN(c3cn[nH]c(=O)c3)C2)c1 (stereo not drawn)          active

Per the records of this test, what outcome belongs to CCOCC(=O)N1CCN(c2nc3c(s2)c(C)nn3-c2ccc(OC)cc2)CC1 ?
active

Moving on to the next compound: N#Cc1cnn(C(=O)c2ccc(OCc3ccccc3)cc2)c1N
inactive

Moving on to the next compound: COc1ccccc1C(=O)Cc1nc2ccccc2o1
inactive

Moving on to the next compound: O=S(=O)(c1c[nH]cn1)N1CCNC[C@H]1c1cccc(Cl)c1
inactive
